test system: NCI-H226; experiment: NCI-60 cytotoxicity, NCI-H226; assay type: cell-based, human; conditions: NCI-H226 (Lung), 72 h
Reported Metric: IC50

Q: Name the recorded IC50 for O=C1NC(=NCc2cccs2)S/C1=C\c1ccc2ncccc2c1 .
Result: > 10 µM

Q: And then O=C1NCCc2[nH]c(-c3ccncc3)cc21 , what is it?
Result: > 10 µM

###

system: Hut78 cells; test: CellTiterGlo cell viability, Hut78; type: cell-based, human; settings: Homo sapiens, HuT78, 72 h
pIC50: −log10 of the molar value.
Reported Metric: pIC50

Q: Name the recorded pIC50 for Cc1ccc([N+](=O)[O-])cc1S(=O)(=O)N(C)/N=C/c1cnc2ccc(-c3ccc(F)nc3)cn12 [Compound F7D10] .
Result: ~5.60

Q: And then Cc1ccc(=O)n(-c2ccccc2)c1 [Pirfenidone] , what is it?
Result: < 3.90

Q: And then Cc1ccc([N+](=O)[O-])cc1S(=O)(=O)N(C)/N=C/c1cnc2ccc(Br)cn12 [Compound F7] , what is it?
Result: 7.38

###

system: HL60; experiment: NCI-60 cytotoxicity, HL60; assay type: cell-based, human; conditions: HL60 (AML), 72 h
Could you please report measured pIC50 for the items listed next?
A value of pIC50 is the negative decimal logarithm of a concentration given in moles per litre.

Q: Name the recorded pIC50 for O=C1NC(=NCc2cccs2)S/C1=C\c1ccc2ncccc2c1 .
Result: 5.94

Q: And then O=C1NCCc2[nH]c(-c3ccncc3)cc21 , what is it?
Result: 6.61

###

tested on: HH cells; experiment: CellTiterGlo cell viability, HH; format: cell-based; settings: Homo sapiens, 72 h
Reported Metric: pIC50
A value of pIC50 is the negative decimal logarithm of a concentration given in moles per litre.

Q: Name the recorded pIC50 for Cc1ccc([N+](=O)[O-])cc1S(=O)(=O)N(C)/N=C/c1cnc2ccc(Br)cn12 .
Result: 7.47

###

test system: A549; assay: NCI-60 cytotoxicity, A549; type: cell-based, human; details: Homo sapiens; A549 (Lung), 72 h
Reported Metric: pIC50
A value of pIC50 is the negative decimal logarithm of a concentration given in moles per litre.

Q: Name the recorded pIC50 for Cc1ccc([N+](=O)[O-])cc1S(=O)(=O)N(C)/N=C/c1cnc2ccc(Br)cn12 .
Result: 5.58
